System: 299254-011-R-J1-PDC complex spheroids viability
Assay: Anticancer human tumor 299254-011-R-J1-PDC patient-derived melanoma cell line growth inhibition [GQUAD]
Details: second compound 0.1 µM; first compound 1 µM; stronger effect = lower value
viability, T/C vs 80%: less than gives true (1); not less than gives false (0).

Worked examples, 4 molecules total:
molecule	assigned_class
CC(C)(O)C1CCC(Nc2ccc3ncc(-c4cccc(C(F)(F)F)c4)n3n2)CC1 (stereo not given) + Cc1[nH]c2ccc(F)cc2c1-c1nc2c3cccnc3c3ncccc3c2[nH]1	false (0)
COc1cc(C2c3cc4c(cc3C(OC3OC5COC(C)OC5C(O)C3O)C3COC(=O)C23)OCO4)cc(OC)c1O (stereo not given) + Cc1[nH]c2ccc(F)cc2c1-c1nc2c3cccnc3c3ncccc3c2[nH]1	true (1)
C=CC(=O)N1CCN(c2nc(=O)n(-c3c(C)ccnc3C(C)C)c3nc(-c4c(O)cccc4F)c(F)cc23)C(C)C1 (stereo not given) + CN(C)c1ccc(Nc2c3ccc(NC(=O)CCN4CCCC4)cc3nc3cc(NC(=O)CCN4CCCC4)ccc23)cc1	true (1)
CCCS(=O)(=O)Nc1ccc(F)c(C(=O)c2c[nH]c3ncc(-c4ccc(Cl)cc4)cc23)c1F + Cc1[nH]c2ccc(F)cc2c1-c1nc2c3cccnc3c3ncccc3c2[nH]1	false (0)

Could you now look at the following molecule, please?
Task item: Criterion: viability, T/C strictly below 80%. Is it met by Cc1cccc(N(C)C(=O)C2C(O)CCN2c2nc(C)cc(C(F)(F)F)c2C#N)c1 (stereo not given) + Cc1cnc(CNC(=O)c2c(=O)c3ccc(N4CCCN(C)CC4)nc3n3c2sc2ccccc23)cn1 ?
Reply: false (0)

###

Below is a list of entries, each paired with its recorded viability, T/C value.
System: 299254-011-R-J1-PDC complex spheroids viability
Assay: Anticancer human tumor 299254-011-R-J1-PDC cell line growth inhibition [GQUAD];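 also: spheroids exposed to the agents for seven days before readout; percent viability relative to DMSO vehicle control wells = 100%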
Conditions: second compound 0.1 µM; first compound 1 µM; stronger effect = lower value
Write it as a number; the unit % goes unstated.

Some solved entries appear below for comparison.
compound	readout_units	viability, T/C
COc1cccc2c1C(=O)c1c(O)c3c(c(O)c1C2=O)CC(O)(C(=O)CO)CC3OC1CC(N)C(O)C(C)O1 (stereo not drawn) + CN(C)c1ccc(Nc2c3ccc(NC(=O)CCN4CCCC4)cc3nc3cc(NC(=O)CCN4CCCC4)ccc23)cc1	%	79.8
CCCS(=O)(=O)Nc1ccc(F)c(C(=O)c2c[nH]c3ncc(-c4ccc(Cl)cc4)cc23)c1F + CN(C)c1ccc(Nc2c3ccc(NC(=O)CCN4CCCC4)cc3nc3cc(NC(=O)CCN4CCCC4)ccc23)cc1	%	88.4

Now, please, on to the next compound.
// CC(C)n1c(=O)n(C)c2cnc3cc(F)c(-c4ccc(OCCCN5CCCCC5)nc4)cc3c21 + Cc1cnc(CNC(=O)c2c(=O)c3ccc(N4CCCN(C)CC4)nc3n3c2sc2ccccc23)cn1 : viability, T/C value = 87.8

###

Tested on: 299254-011-R-J1-PDC complex spheroids viability
Assay: Anticancer human tumor 299254-011-R-J1-PDC cell line growth inhibition [GQUAD];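 also: spheroids exposed to the agents for seven days before readout; percent viability relative to DMSO vehicle control wells = 100%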
Details: second compound 0.316 µM; first compound 0.0316 µM; stronger effect = lower value
viability, T/C vs 80%: less than gives rule met; not less than gives rule not met.

compound	target	assigned_class
CC1COCCN1c1cc(C2(O)CC3CCC(C2)O3)c2cnn(-c3ccn[nH]3)c2n1 (stereo unspecified) + Cc1[nH]c2ccc(F)cc2c1-c1nc2c3cccnc3c3ncccc3c2[nH]1	299254-011-R-J1-PDC complex spheroids viability	rule met
Cc1[nH]c2ccccc2c1CCNCc1ccc(/C=C/C(=O)NO)cc1 + CN(C)c1ccc(Nc2c3ccc(NC(=O)CCN4CCCC4)cc3nc3cc(NC(=O)CCN4CCCC4)ccc23)cc1	299254-011-R-J1-PDC complex spheroids viability	rule not met

Task item: Criterion: viability, T/C strictly below 80%. Is it met by Cc1cccc(N(C)C(=O)C2C(O)CCN2c2nc(C)cc(C(F)(F)F)c2C#N)c1 (stereo unspecified) + Cc1cnc(CNC(=O)c2c(=O)c3ccc(N4CCCN(C)CC4)nc3n3c2sc2ccccc23)cn1 ?
Reply: rule not met

Task item: Criterion: viability, T/C strictly below 80%. Is it met by CC(C)(O)C1CCC(Nc2ccc3ncc(-c4cccc(C(F)(F)F)c4)n3n2)CC1 (stereo unspecified) + CN(C)c1ccc(Nc2c3ccc(NC(=O)CCN4CCCC4)cc3nc3cc(NC(=O)CCN4CCCC4)ccc23)cc1 ?
Reply: rule not met

Task item: Criterion: viability, T/C strictly below 80%. Is it met by O=C(NO)c1cnc(N2CCN(S(=O)(=O)c3ccc4ccccc4c3)CC2)nc1 + Cc1cnc(CNC(=O)c2c(=O)c3ccc(N4CCCN(C)CC4)nc3n3c2sc2ccccc23)cn1 ?
Reply: rule not met

Task item: Criterion: viability, T/C strictly below 80%. Is it met by CC(C)n1c(=O)n(C)c2cnc3cc(F)c(-c4ccc(OCCCN5CCCCC5)nc4)cc3c21 + Cc1cnc(CNC(=O)c2c(=O)c3ccc(N4CCCN(C)CC4)nc3n3c2sc2ccccc23)cn1 ?
Reply: rule met

Task item: Criterion: viability, T/C strictly below 80%. Is it met by C=CC(=O)N1CCN(c2nc(=O)n(-c3c(C)ccnc3C(C)C)c3nc(-c4c(O)cccc4F)c(F)cc23)C(C)C1 (stereo unspecified) + Cc1cnc(CNC(=O)c2c(=O)c3ccc(N4CCCN(C)CC4)nc3n3c2sc2ccccc23)cn1 ?
Reply: rule not met
